Reference source for all entries: patent US20240400677A1

TARGET_OR_SYSTEM: T1, Cynomolgus Monkey SIRPγ (plate-coated extracellular domain)
T1 construct: also called Cyno SIRPγ
T1 extracellular domain: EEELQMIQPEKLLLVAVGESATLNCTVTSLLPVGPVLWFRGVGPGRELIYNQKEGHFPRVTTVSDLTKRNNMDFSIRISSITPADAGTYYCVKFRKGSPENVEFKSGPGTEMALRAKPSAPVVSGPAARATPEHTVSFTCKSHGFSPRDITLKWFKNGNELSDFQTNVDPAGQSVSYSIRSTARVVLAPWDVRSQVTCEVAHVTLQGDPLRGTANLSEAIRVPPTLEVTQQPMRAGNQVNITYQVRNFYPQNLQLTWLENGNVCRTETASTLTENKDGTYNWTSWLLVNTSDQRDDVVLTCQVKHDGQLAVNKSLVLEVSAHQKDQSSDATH
RUN_DESCRIPTION: ELISA, coated SIRP ECD (2 µg/mL), anti-human IgG, luminescence
MEASURED_QUANTITY: EC50 (read off the curve)

-- ask Look up and state reported EC50 (read off the curve) for Antibody 74 (antibody, V domains shown) VH: QVQLVQSGAEVKKPGASVKVSCKASGGTFSNYGFSWVRQAPGQGLEWMGWMSPSSGNTGYAQKFQGRVTMTRDTSTSTVYMELSSLRSEDTAVYYCARERSGSYFDYWGQGTLVTVSS VL: EIVMTQSPATLSVSPGERATLSCRASQSVSSYLAWYQQKPGQAPRLLIYGTSTRATGIPARFSGSGSGTEFTLTISSLQSEDFAVYYCQQYGSLPFTFGQGTRLEIK
-- reply ~0.7 µg/mL

-- ask Specify measured EC50 (read off the curve) for Antibody 79 (antibody, V domains shown) VH: QVQLVQSGAEVKKPGASVKVSCKASGYTFTSYYMHWVRQAPGQGLEWMGWMNPNSGNTGYAQKFQGRVTMTRDTSTSTVYMELSSLRSEDTAVYYCARDQMYSSYGMDVWGQGTTVTVSS VL: DIQMTQSPSSLSASVGDRVTITCRASESITNWLAWYQQKPGKAPKLLIYKASSLESGVPSRFSGSGSGTDFTLTISSLQPEDFATYYCQQSYGTPYTFGQGTKVEIK .
-- reply ~0.06 µg/mL
